# experiment: Volume of distribution at steady state in cynomolgus monkey at 1 mg/kg, po and 0.5 mg/kg, iv
# Type: ADME, organism-based, Macaca fascicularis
# cond: in vivo, read-out: Vdss
value_type: Vd (L/kg)

{"smiles_data": "CN([C@@H]1CCc2c(CC(=O)O)c3ccccc3n2C1)S(=O)(=O)c1ccc(F)cc1", "measure_unit": "L/kg", "obs_value": 0.5}

====

# experiment: Oral bioavailability in cynomolgus monkey at 1 mg/kg
# Type: ADME, organism-based, Macaca fascicularis
# cond: in vivo

{"smiles_data": "CN([C@@H]1CCc2c(CC(=O)O)c3ccccc3n2C1)S(=O)(=O)c1ccc(F)cc1", "bioavailability": "10%"}

====

# experiment: Terminal half life in cynomolgus monkey at 1 mg/kg, po and 0.5 mg/kg, iv
# Assay type: ADME, organism-based, Macaca fascicularis
# cond: in vivo

{"smiles_data": "CN([C@@H]1CCc2c(CC(=O)O)c3ccccc3n2C1)S(=O)(=O)c1ccc(F)cc1", "half-life": "11 h"}

====

# experiment: Volume of distribution at steady state in Beagle dog at 1 mg/kg, po and 0.5 mg/kg, iv
# Type: ADME, organism-based, Canis lupus familiaris
# cond: in vivo, read-out: Vdss

{"compound": "CN([C@@H]1CCc2c(CC(=O)O)c3ccccc3n2C1)S(=O)(=O)c1ccc(F)cc1 [MK-7246]", "Vd / L/kg": 2.3}

====

# experiment: Clearance in cynomolgus monkey at 1 mg/kg, po and 0.5 mg/kg, iv
# Type: ADME, organism-based, Macaca fascicularis
# cond: in vivo

{"compound": "CN([C@@H]1CCc2c(CC(=O)O)c3ccccc3n2C1)S(=O)(=O)c1ccc(F)cc1 [MK-7246]", "clearance": "4.8 mL/min/kg"}

====

# experiment: Clearance in Beagle dog at 1 mg/kg, po and 0.5 mg/kg, iv
# Format: ADME, organism-based, Canis lupus familiaris
# cond: in vivo

{"molecule": "CN([C@@H]1CCc2c(CC(=O)O)c3ccccc3n2C1)S(=O)(=O)c1ccc(F)cc1 [MK-7246]", "clearance [mL/min/kg]": 15}

====

# experiment: Volume of distribution at steady state in rhesus monkey at 1 mg/kg, po and 0.5 mg/kg, iv
# Assay type: ADME, organism-based, Macaca fascicularis
# cond: cynomolgus monkey, in vivo, read-out: Vdss
value_type: Vd (L/kg)

{"smiles_data": "CN([C@@H]1CCc2c(CC(=O)O)c3ccccc3n2C1)S(=O)(=O)c1ccc(F)cc1", "obs_value": 2.6}

====

# experiment: Oral bioavailability in Beagle dog at 1 mg/kg
# Type: ADME, organism-based, Canis lupus familiaris
# cond: in vivo
value_type: bioavailability (%)

{"compound": "CN([C@@H]1CCc2c(CC(=O)O)c3ccccc3n2C1)S(=O)(=O)c1ccc(F)cc1 [MK-7246]", "obs_value": 5.6}

====

# experiment: Terminal half life in rhesus monkey at 1 mg/kg, po and 0.5 mg/kg, iv
# Type: ADME, organism-based, Macaca fascicularis
# cond: cynomolgus monkey, in vivo
value_type: half-life

{"smiles_data": "CN([C@@H]1CCc2c(CC(=O)O)c3ccccc3n2C1)S(=O)(=O)c1ccc(F)cc1", "obs_value": "8.1 h"}

====

# experiment: Terminal half life in Beagle dog at 1 mg/kg, po and 0.5 mg/kg, iv
# Type: ADME, organism-based, Canis lupus familiaris
# cond: in vivo
value_type: half-life (h)

{"smiles_data": "CN([C@@H]1CCc2c(CC(=O)O)c3ccccc3n2C1)S(=O)(=O)c1ccc(F)cc1", "value_type": "half-life", "obs_value": 8.4}
